Where do the numbers come from? From paper PMC11940309.

- testSystem: UniProt:P06401
- Sequence (P06401 679-933 limits assumed): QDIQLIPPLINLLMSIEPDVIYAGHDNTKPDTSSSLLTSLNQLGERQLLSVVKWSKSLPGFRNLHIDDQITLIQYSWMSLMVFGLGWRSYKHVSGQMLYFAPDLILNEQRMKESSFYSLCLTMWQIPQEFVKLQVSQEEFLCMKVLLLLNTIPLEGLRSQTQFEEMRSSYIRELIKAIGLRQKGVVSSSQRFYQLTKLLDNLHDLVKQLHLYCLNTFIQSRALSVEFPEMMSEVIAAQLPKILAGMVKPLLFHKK
- testSummary: PR-mediated induction of transcription by R5020 in T47D K5pLuc cells (luciferase reporter and endogenous alkaline phosphatase)
- Assay type: cell-based
- conditionNotes: T47D, 8 µM; LUC (luciferase); R5020 1.0 nM
Answer each item with its documented inhibition at 8 µM.
Give bare numbers, in %.

Solved entries:
molecule	inhibition at 8 µM, %
Oc1ccc(C2COc3cc(O)ccc3C2)cc1 (stereo not drawn) [7,4′-dihydroxyisoflavan]	-88
O=c1cc(-c2ccc(O)c(O)c2)oc2cc(O)ccc12 [7,3′,4′-trihydroxyflavone]	-10
O=c1cc(-c2ccccc2)oc2cccc(O)c12 [5-hydroxyflavone]	45
O=c1cc(-c2ccc(O)c(O)c2)oc2cccc(O)c12 [5,3′,4′-trihydroxyflavone]	55

Items follow; give inhibition at 8 µM for each.
1. O=C1CC(c2ccc(O)c(O)c2)Oc2cc(O)cc(O)c21 (stereo not drawn) [5,7,3′,4′-tetrahydroxyflavanone]
2. O=c1cc(-c2ccccc2)oc2cc(O)cc(O)c12 [5,7-dihydroxyflavone]
3. O=c1cc(-c2ccc(O)cc2)oc2ccc(O)cc12 [6,4′-dihydroxyflavone]

1. 23
2. 90
3. -103

Items follow; give inhibition at 8 µM for each.
1. O=C1CC(c2ccc(O)cc2)Oc2cc(O)cc(O)c21 (stereo not drawn) [5,7,4′-trihydroxyflavanone]
2. O=c1cc(-c2ccc(O)c(O)c2)oc2cc(O)cc(O)c12 [5,7,3′,4′-tetrahydroxyflavone]

[98, 95]
